B1: C10orf62 (parent)
chain: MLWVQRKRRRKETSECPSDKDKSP

variants of: B1; assay: protein stability index of a GFP-peptide fusion (GPS, HEK-293T) (PSI 1-6); higher = more stable; details: c terminus: a fixed tail appended;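 also: lentivirally expressed fusions sorted by FACS into six bins by GFP to DsRed ratio, PSI derived from sequencing read proportions per bin multiplied by bin number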
Kindly return rule met if reported protein stability index is no lower than 3; return rule not met if it is lower.

[[record]]
variant_name = "R9P"
classification = "rule not met"

[[record]]
variant_name = "R8E"
classification = "rule met"

[[record]]
variant_name = "R8Q"
classification = "rule met"

[[record]]
variant_name = "K11P"
classification = "rule met"

[[record]]
variant_name = "K7S"
classification = "rule met"

[[record]]
variant_name = "P17F"
classification = "rule not met"

[[record]]
variant_name = "P24G"
classification = "rule met"

[[record]]
variant_name = "R10T"
classification = "rule met"

[[record]]
variant_name = "C16Y"
classification = "rule met"

[[record]]
variant_name = "D21P"
classification = "rule not met"

[[record]]
variant_name = "K22T"
classification = "rule met"

[[record]]
variant_name = "P17H"
classification = "rule not met"

[[record]]
variant_name = "D21Q"
classification = "rule not met"

[[record]]
variant_name = "K20Y"
classification = "rule met"

[[record]]
variant_name = "E12Y"
classification = "rule not met"

[[record]]
variant_name = "S23N"
classification = "rule met"

[[record]]
variant_name = "D19F"
classification = "rule not met"

[[record]]
variant_name = "P24H"
classification = "rule met"

[[record]]
variant_name = "S23D"
classification = "rule met"

